Could you please report measured growth for the items listed next?
- System: ACHN renal
- Test description: NCI-60 one-dose screen, 48 h (100 = growth as untreated, 0 = no growth, -100 = all killed)
- Run conditions: 10 µM unless noted
The panel holds about 83,000 compounds, 20% with a hit somewhere; the sample as a whole holds those more often.
One number for each entry, in %.

| Compound | Recorded metric | Experimental result |
| --- | --- | --- |
| CCCCNC(=O)Oc1ccc(/C(=C(/C)Cc2ccc(OC)cc2)c2ccc(OCCN(CC)CC)cc2)cc1 | growth | 91.1 |
| CS(=O)(=O)Nc1cc(-c2ccc3ncnc(Nc4ccc5c(cnn5Cc5ccc(F)cc5)c4)c3c2)cnc1Cl | growth | 70.6 |
| O=C1NC(=C(Cl)Cl)/C(=N\S(=O)(=O)NCc2ccccc2)N1 | growth | 110 |

Batch request: growth for each of the following compounds.
1. COc1cc2c(c(OC)c1OC)CCC(c1cccc(C(=O)Nc3ccc(C#N)cc3)c1)O2 (configuration not stated)
2. N#Cc1c(-c2ccc(Cl)cc2)nc(NN2C(=O)c3ccccc3C2=O)nc1N1CCOCC1
3. O=C1c2c(c3c4ccccc4[nH]c3c3ccc4ccccc4c23)C(=O)N1CCN1CCOCC1
4. C=C1C(=O)O[C@H]2[C@H]1CC/C(COC(=O)C(=O)c1cn(C)c3ccc(Cl)cc13)=C\CC[C@@]1(C)O[C@@H]21

OUT:
[39.8, 104, 15.3, -91.8]

----------
- System: SN12C renal
- Test description: NCI-60 one-dose screen, 48 h (100 = growth as untreated, 0 = no growth, -100 = all killed)
- Run conditions: 10 µM unless noted
This is part of a sample that, as a whole, favours compounds with a hit. Of some 83,000 tested, about 20% had one in any assay.
Recorded metric: growth (%)
Numbers only, in %.

Answered examples (5):
| Molecule | growth, % |
| --- | --- |
| COc1cc2c(c(OC)c1OC)CCC(c1cccc(C(=O)Nc3ccc(C#N)cc3)c1)O2 (stereo not drawn) | 46.6 |
| CCOC(=O)Cc1cnc(N/N=C(\C)c2cc3ccccc3o2)s1 | 99.1 |
| Cc1c[n+](Cc2ccc3ccccc3c2)cn1Cc1ccc2ccccc2c1 | 7.56 |
| CCOC(=O)C/C(=N\Nc1cc(=O)[nH]c2ccc(Br)cc12)C(=O)OCC | 100 |
| Cn1ccnc1C(=O)/C=C/c1ccc(CC(=O)Nc2cc(C(F)(F)F)cc(C(F)(F)F)c2)cc1 | 67.4 |

Batch request: growth for each of the following molecules.
1. O=C(Nc1cccc(Cl)c1)Nc1cccc(Cn2c(=O)[nH]c3ccc(Oc4ncccn4)cc3c2=O)c1
2. CS(=O)(=O)c1ccc(-c2cnn3ccc(-c4cccc(S(=O)(=O)C5CC5)c4)nc23)cc1
3. Cc1cc(C(=O)O)c(C)n1-c1cccc(C(=O)O)c1
4. O=C(Nn1c2c(sc1=NC1CC1)C(=O)c1ccccc1C2=O)c1cc2ccc1CCc1ccc(cc1)CC2
5. Cc1ccc2c(c1)=C/C(=C\c1cc(-c3ccccc3)oc1O)C(=O)N=2
6. C[C@@H](CO)[C@@H]1CCC=C2CC[C@]3(C)[C@H](CC[C@@H]4[C@@]5(C)CCCNC(C)(C)[C@@H]5CC[C@]43C)[C@H]21
7. N#Cc1c(-c2ccc(Cl)cc2)c(C#N)c2c(C#N)c(N)nn2c1N

OUT:
1: 76; 2: 55.3; 3: 83.7; 4: 30.9; 5: 106; 6: 67.3; 7: 87.8

Batch request: growth for each of the following molecules.
1. COc1cc2c(cc1OCCCN1CCN(CCCOc3cc4c(cc3OC)C(=O)N3CCC[C@H]3C=N4)CC1)C=CC(C)(C)O2
2. CSc1nnc(-c2cc3c([nH]c4ccccc43)c(-c3cccc(O)c3)n2)n1-c1ccccc1

OUT:
1: -65.7; 2: 43.7

Batch request: growth for each of the following molecules.
1. Cc1ccc(Nc2cc(N)nc(N)n2)cc1Cl
2. CN(/C(N)=N/N=C/c1c2ccccc2cc2ccccc12)C1CCCCC1
3. CC1OC(n2c3ccccc3c3c4c(c5c6ccccc6[nH]c5c32)C(=O)N(CCN2CCCC2)C4=O)CC(O)C1O (stereo not drawn)
4. CCN1C(=S)N(c2ccccc2)C2C1NN=c1s/c(=C3\C(=O)N(C(C)C)c4ccccc43)c(=O)n12 (stereo not drawn)
5. C/C(Cc1ccc(Cl)cc1)=C(\c1ccc(O)cc1)c1ccc(Cl)cc1

OUT:
[104, 54.7, 42, 55.1, 95.1]

Batch request: growth for each of the following molecules.
1. CC1CCN(S(=O)(=O)c2ccc(S(=O)(=O)N3CCCC(c4nc5c(nnn5Cc5cccc(Cl)c5)c(=O)[nH]4)C3)cc2)CC1 (stereo not drawn)
2. COc1cc2ncnc(Nc3ccc(S(=O)(=O)Nc4cc(C)on4)cc3)c2cc1OCCCN1CCN(c2ccc(F)cc2)CC1
3. Oc1c(Br)cc(Br)c2ccc(Cn3cc(-c4ccc(C(F)(F)F)cc4)nn3)nc12
4. CC(C)c1ccc(Cc2cnc(NC(=O)c3cc(Br)cs3)s2)cc1

OUT:
1. 47.3
2. 100
3. 71
4. 49.7

Batch request: growth for each of the following molecules.
1. COc1ccc(C2CC(c3ccc(Nc4nc(Nc5ccccc5)nc(Nc5ccccc5)n4)cc3)=NN2C(C)=O)cc1 (stereo not drawn)
2. O=C(CSc1oc(-c2ccccc2)nc1S(=O)(=O)c1ccccc1)Nc1ccc(F)cc1
3. COc1ccc(-c2ccc(-c3ccc(C(=N)N)cc3)s2)cc1Cl
4. C#Cc1c2c(c(OC)c3c1OCO3)[C@H]([C@H]1OC(=O)c3c1ccc(OC)c3OC)N(C)CC2
5. C=CCSc1nnc(NC(=O)CCl)s1

OUT:
95.7
89
-69.1
100
95.2

----------
- Test system: DU-145 prostate
- Test description: NCI-60 one-dose screen, 48 h
- Run conditions: 10 µM unless noted
The panel holds about 83,000 compounds, 20% with a hit somewhere; the sample as a whole holds those more often. The source made the active and inactive calls. How the source made its calls: active means growth percent below 10; inactive means the rest.
In this exercise, the only acceptable responses are 1 (active), 0 (inactive)

Example results:
| Compound | Tested target | Class name |
| --- | --- | --- |
| CC1CCN(CCOc2ccc(CNc3ccc4nc(CCC5CCCCC5)[nH]c4c3)cc2)CC1 | DU-145 prostate | 0 |
| Nc1c(C(=O)Nc2ccccc2C(F)(F)F)sc2nc3c(cc12)CCC3 | DU-145 prostate | 0 |
| CCCCCC(/C=N\NC(=S)N/N=C/C(=C/c1ccccc1)CCCCC)=C\c1ccccc1 | DU-145 prostate | 0 |
| S=c1sc2c(Cl)nc(-c3cccnc3)nc2n1-c1ccccc1 | DU-145 prostate | 0 |
| NC(Cc1ccc(O)c([N+](=O)[O-])c1)C(=O)O (configuration not stated) | DU-145 prostate | 0 |
| CCCNc1nc2ccccc2c2c1S(=O)(=O)c1ccc(Cl)cc1C2=O | DU-145 prostate | 0 |

IN: Hello, I am checking results. What call was entered for Cc1nc2sc(C(=O)Nc3cccc4ccccc34)c(N)c2cc1C(O)c1ccccc1 (configuration not stated) ?
OUT: 1

IN: Hello, I am checking results. What call was entered for `C=CCc1c(O)c(C(=O)/C=C/c2ccccc2)c(OC)c2ccoc12` ?
OUT: 0

IN: Hello, I am checking results. What call was entered for `NC(=O)c1cccc(-n2ccc3cc(NC(=O)c4ccc(N5CCOCC5)c(C(F)(F)F)c4)ccc32)n1` ?
OUT: 0

----------
- Test system: MCF7 breast
- Test description: NCI-60 one-dose screen, 48 h (100 = growth as untreated, 0 = no growth, -100 = all killed)
- Run conditions: 10 µM unless noted
About 83,000 compounds went through this panel and 20% of them were active in at least one assay; those are over-represented in the sample as a whole.
Recorded metric: growth (%)
Give bare numbers, in %.

Answered examples (5):
| Compound | growth (%) |
| --- | --- |
| Cn1cc(-c2ccc3nc(-c4ccc(CC(=O)ONc5cc(C(C)(C)C)on5)cc4)cnc3c2)cn1 | 53.1 |
| CCNCCNc1cc(-c2ccc(C(F)(F)F)cc2)c(C#N)c2nc3ccccc3n12 | -71.6 |
| CC(=O)c1c(C)nc2ccccc2c1/C=C/c1ccc(F)cc1 | 77.3 |
| Cc1ccc(C2=Nc3c(N)ncnc3NC(c3cccc(Nc4ccnc5cc(C(F)(F)F)ccc45)c3)C2)cc1 (stereo not drawn) | 8.09 |
| O=c1c2cnn(-c3ccccc3)c2n2c(CN3CCOCC3)nnc2n1-c1ccccc1 | 99.3 |

Batch request: growth for each of the following compounds.
1. COc1ccc(C(=O)Nc2cccc(-c3cc(=O)c4c(OC)c(OC)c(OC)cc4o3)c2)cc1
2. N#Cc1ccc(O)c(C2=NCC(c3ccccc3)O2)c1 (stereo not drawn)

OUT:
66.5
25.3

// field: growth; key: `CCOc1ccc(NC(=O)CSc2oc(-c3ccccc3)nc2S(=O)(=O)c2ccc(C)cc2)cc1` ; value = 61.9
